Assay: in vivo
Conditions: nude, mouse, iv, 3.7 MBq, total radioactivity, U87MG tumor uptake
Listed next: entries and their corresponding tissue uptake at 0.5 h.

MOLECULE: N=C(N)NCCC[C@@H]1NC(=O)[C@H](CCCCNC(=O)CC[C@H](NC(=S)Nc2ccc(C[C@H]3CN(CC(=O)O)CCN(CC(=O)O)CCN3CC(=O)O)cc2)C(=O)NCCCC[C@@H]2NC(=O)[C@@H](Cc3ccc(O)cc3)NC(=O)[C@H](CC(=O)O)NC(=O)CNC(=O)[C@H](CCCNC(=N)N)NC2=O)NC(=O)[C@@H](Cc2ccc(O)cc2)NC(=O)[C@H](CC(=O)O)NC(=O)CNC1=O [^68Ga-NOTA-RGD2, metal not drawn]
tissue uptake at 0.5 h, %ID/g: 2.79
--
MOLECULE: N=C(N)NCCC[C@@H]1NC(=O)[C@H](CCCCNC(=S)Nc2ccc(C[C@H]3CN(CC(=O)O)CCN(CC(=O)O)CCN3CC(=O)O)cc2)NC(=O)[C@@H](Cc2ccc(O)cc2)NC(=O)[C@H](CC(=O)O)NC(=O)CNC1=O [^68Ga-NOTA-RGD1, metal not drawn]
tissue uptake at 0.5 h, %ID/g: 1.84

---

# Lookup of reported tissue uptake at 0.25 h keyed by entry
Assay: in vivo
Details: nude, mouse, iv, 3.7 MBq, total radioactivity, U87MG tumor uptake

COMPOUND: N=C(N)NCCC[C@@H]1NC(=O)[C@H](CCCCNC(=S)Nc2ccc(C[C@H]3CN(CC(=O)O)CCN(CC(=O)O)CCN3CC(=O)O)cc2)NC(=O)[C@@H](Cc2ccc(O)cc2)NC(=O)[C@H](CC(=O)O)NC(=O)CNC1=O [^68Ga-NOTA-RGD1, metal not drawn]
tissue uptake at 0.25 h (%ID/g): 2.35

COMPOUND: N=C(N)NCCC[C@@H]1NC(=O)[C@H](CCCCNC(=O)CC[C@H](NC(=S)Nc2ccc(C[C@H]3CN(CC(=O)O)CCN(CC(=O)O)CCN3CC(=O)O)cc2)C(=O)NCCCC[C@@H]2NC(=O)[C@@H](Cc3ccc(O)cc3)NC(=O)[C@H](CC(=O)O)NC(=O)CNC(=O)[C@H](CCCNC(=N)N)NC2=O)NC(=O)[C@@H](Cc2ccc(O)cc2)NC(=O)[C@H](CC(=O)O)NC(=O)CNC1=O [^68Ga-NOTA-RGD2, metal not drawn]
tissue uptake at 0.25 h (%ID/g): 3.46

---

Assay: in vivo
Conditions: female, nude, mouse, 10 mg/kg, total radioactivity, tumor uptake with blocking
TEST READOUT: tissue uptake at 1 h

MOLECULE: N=C(N)NCCC[C@@H]1NC(=O)[C@H](CCCCNC(=O)CC[C@H](NC(=S)Nc2ccc(C[C@H]3CN(CC(=O)O)CCN(CC(=O)O)CCN3CC(=O)O)cc2)C(=O)NCCCC[C@@H]2NC(=O)[C@@H](Cc3ccc(O)cc3)NC(=O)[C@H](CC(=O)O)NC(=O)CNC(=O)[C@H](CCCNC(=N)N)NC2=O)NC(=O)[C@@H](Cc2ccc(O)cc2)NC(=O)[C@H](CC(=O)O)NC(=O)CNC1=O [^68Ga-NOTA-RGD2, metal not drawn]
TEST READOUT: tissue uptake at 1 h
OBSERVED VALUE: 0.21 %ID/g

---

Test: in vivo
Conditions: nude, mouse, iv, 3.7 MBq, total radioactivity, U87MG tumor uptake

COMPOUND: N=C(N)NCCC[C@@H]1NC(=O)[C@H](CCCCNC(=O)CC[C@H](NC(=S)Nc2ccc(C[C@H]3CN(CC(=O)O)CCN(CC(=O)O)CCN3CC(=O)O)cc2)C(=O)NCCCC[C@@H]2NC(=O)[C@@H](Cc3ccc(O)cc3)NC(=O)[C@H](CC(=O)O)NC(=O)CNC(=O)[C@H](CCCNC(=N)N)NC2=O)NC(=O)[C@@H](Cc2ccc(O)cc2)NC(=O)[C@H](CC(=O)O)NC(=O)CNC1=O [^68Ga-NOTA-RGD2, metal not drawn]
tissue uptake at 5 min (%ID/g): 4.39

These data points were gathered from patent US20080267882A1.
